conditions: 328.15 K; 101.33 kPa; Liquid; Linear variable-path acoustic interferometer
Listed here: items and their measured speed of sound.
outcome-measure: speed of sound (m/s)

- molecule: "CC(O)CO (centres undefined)"
  value-unit: "m/s"
  number: 1401
- molecule: "O"
  value-unit: "m/s"
  number: 1545
- molecule: "OCCCO"
  value-unit: "m/s"
  number: 1575.9
- molecule: "CCC(O)CO (centres undefined)"
  value-unit: "m/s"
  number: 1387

----------
Listed here: items and their measured mass density.
conditions: 308.15 K; 101.33 kPa; Liquid
outcome-measure: mass density (kg/m3)

- compound: "CC(O)C(C)O (stereo unspecified)"
  outcome-measure: "mass density"
  value-unit: "kg/m3"
  number: 992.11
- compound: "OCCCO"
  outcome-measure: "mass density"
  value-unit: "kg/m3"
  number: 1043.71
- compound: "CC(O)CCO (stereo unspecified)"
  outcome-measure: "mass density"
  value-unit: "kg/m3"
  number: 994.22
- compound: "OCCCCO"
  outcome-measure: "mass density"
  value-unit: "kg/m3"
  number: 1006.4
- compound: "CCC(O)CO (stereo unspecified)"
  outcome-measure: "mass density"
  value-unit: "kg/m3"
  number: 991.42
- compound: "CC(O)CO (stereo unspecified)"
  outcome-measure: "mass density"
  value-unit: "kg/m3"
  number: 1025.4

----------
conditions: 338.15 K; 101.33 kPa; Liquid; Capillary tube (Ostwald / Ubbelohde) method
Listed here: items and their measured viscosity.
outcome-measure: viscosity (mPa·s)

- compound: "OCCCCO"
  outcome-measure: "viscosity"
  number: 13.49
- compound: "O"
  outcome-measure: "viscosity"
  number: 0.438
- compound: "CCC(O)CO (configuration not stated)"
  outcome-measure: "viscosity"
  number: 7.257
- compound: "CC(O)CCO (configuration not stated)"
  outcome-measure: "viscosity"
  number: 12.28
- compound: "OCCCO"
  outcome-measure: "viscosity"
  number: 7.939
- compound: "CC(O)CO (configuration not stated)"
  outcome-measure: "viscosity"
  number: 7.044
- compound: "CC(O)C(C)O (configuration not stated)"
  outcome-measure: "viscosity"
  number: 5.195

----------
settings: 298.15 K; 101.33 kPa; Liquid; Linear variable-path acoustic interferometer
Listed here: items and their measured speed of sound.

- molecule: "OCCCO [propan-1,3-diol]"
  speed of sound (m/s): 1636.1
- molecule: "CCC(O)CO (centres undefined) [1,2-butanediol]"
  speed of sound (m/s): 1452
- molecule: "CC(O)CO (centres undefined) [1,2-propanediol]"
  speed of sound (m/s): 1500.1
- molecule: "O [water]"
  speed of sound (m/s): 1498

----------
conditions: 298.15 K; 101.33 kPa; Liquid; Capillary tube (Ostwald / Ubbelohde) method
outcome-measure: log10 viscosity (log10 of the value in mPa·s)

- compound: "CC(O)CO (configuration not stated)"
  log10 viscosity: 1.64
- compound: "CCC(O)CO (configuration not stated)"
  log10 viscosity: 1.76
- compound: "OCCCCO"
  log10 viscosity: 1.86
- compound: "OCCCO"
  log10 viscosity: 1.60
- compound: "CC(O)C(C)O (configuration not stated)"
  log10 viscosity: 1.65
- compound: "CC(O)CCO (configuration not stated)"
  log10 viscosity: 1.99
- compound: "O"
  log10 viscosity: -0.05

----------
Listed here: items and their measured viscosity.
details: 308.15 K; 101.33 kPa; Liquid; Capillary tube (Ostwald / Ubbelohde) method
± gives the expanded uncertainty stated by the source.
outcome-measure: viscosity

- compound: "CC(O)CCO (configuration not stated)"
  result: "52.5 ± 0.15 mPa·s"
- compound: "OCCCO"
  result: "27.25 ± 0.14 mPa·s"
- compound: "OCCCCO"
  result: "44.87 ± 0.21 mPa·s"
- compound: "CC(O)CO (configuration not stated)"
  result: "24.25 ± 0.13 mPa·s"
- compound: "O"
  result: "0.719 ± 0.063 mPa·s"
- compound: "CCC(O)CO (configuration not stated)"
  result: "30.18 ± 0.15 mPa·s"
- compound: "CC(O)C(C)O (configuration not stated)"
  result: "22.95 ± 0.12 mPa·s"

----------
conditions: 338.15 K; 101.33 kPa; Liquid
outcome-measure: mass density (kg/m3)

- molecule: "OCCCO [propan-1,3-diol]"
  number: 1024.47
- molecule: "CC(O)C(C)O (stereo unspecified) [2,3-butanediol]"
  number: 961.97
- molecule: "CCC(O)CO (stereo unspecified) [1,2-butanediol]"
  number: 968.11
- molecule: "OCCCCO [1,4-butanediol]"
  number: 987.93
- molecule: "CC(O)CO (stereo unspecified) [1,2-propanediol]"
  number: 1001.81
- molecule: "CC(O)CCO (stereo unspecified) [1,3-butanediol]"
  number: 971.91

----------
settings: 318.15 K; 101.33 kPa; Liquid; Capillary tube (Ostwald / Ubbelohde) method
Listed here: items and their measured viscosity.

- compound: "OCCCCO"
  value-unit: "mPa·s"
  viscosity: 29.07
- compound: "CC(O)CCO (stereo not drawn)"
  value-unit: "mPa·s"
  viscosity: 30.49
- compound: "O"
  value-unit: "mPa·s"
  viscosity: 0.596
